# normalized growth per entry
- assay_remarks: chemical genetic growth profiling, strain panel (AID 1159580);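 note: tested at 20 µM; growth read once vehicle control cultures reached saturation at 30 °C; 1 = growth at the plate median or of vehicle wells; lower values mean less growth of the strain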
- measurement_context: S. cerevisiae deletion strains, growth OD, strain wtn01, stronger effect = lower value
In all, about 5,500 compounds went through this assay and about 2,000 (36%) were called active. Not shown: some 18% with an inconclusive outcome. The list shows a part of the results.
property_label: normalized growth

compound	property_label	val
C=CC(C1=CC(=O)C(OC)=CC1=O)c1ccc(O)cc1 (stereo not given)	normalized growth	0.994
COc1cc(OC)c2c(=O)c(-c3ccccc3)c(C)oc2c1OC	normalized growth	0.997
CS(=O)(=O)CCCCN=C=S	normalized growth	0.652
C=CC(C1=CC(=O)C(OC)=CC1=O)c1ccc(OC)cc1 (stereo not given)	normalized growth	0.877
C=C[C@@H](C1=CC(=O)C(OC)=C(OC)C1=O)c1ccccc1	normalized growth	0.196

----------
- assay_remarks: chemical genetic growth profiling, strain panel (AID 1159580);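 note: tested at 20 µM; growth read once vehicle control cultures reached saturation at 30 °C; 1 = growth at the plate median or of vehicle wells; lower values mean less growth of the strain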
- measurement_context: S. cerevisiae deletion strains, growth OD, locus YKR026C, strain gcn3, stronger effect = lower value
The campaign covered roughly 5,500 compounds. About 2,000 (36%) were called active. Another 18% or so got no clear call; they are omitted. The list shows a part of the results.

molecule	normalized growth
COc1ccccc1OCCNCC(O)COc1cccc2[nH]c3ccccc3c12 (stereo not drawn)	1.02
OC[C@@H](O)[C@@H](O[C@@H]1O[C@H](CO)[C@@H](O)[C@H](O)[C@H]1O)[C@H](O)[C@@H](O)CO	0.991
C=C(CC)C(=O)c1ccc(OCC(=O)O)c(Cl)c1Cl	1

----------
# normalized growth per entry
- assay_remarks: chemical genetic growth profiling, strain panel (AID 1159580);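 note: tested at 20 µM; growth read once vehicle control cultures reached saturation at 30 °C; 1 = growth at the plate median or of vehicle wells; lower values mean less growth of the strain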
- measurement_context: S. cerevisiae deletion strains, growth OD, locus YNL224C, strain SQS1, stronger effect = lower value
The campaign covered roughly 5,500 compounds. About 2,000 (36%) were called active. Another 18% or so got no clear call; they are omitted. The list shows a part of the results.

compound	normalized growth
CC(C)NC[C@H](O)c1ccc(O)c(O)c1	1.01
N[C@@H](CCC(=O)N[C@H](CSN=O)C(=O)NCC(=O)O)C(=O)O	1
CC(C)NC[C@@H](O)c1ccc(O)c(O)c1	0.997
CSC(N)=NCCC[C@H](N)C(=O)O	1
O=[N+]([O-])c1ccc(CSc2ncnc3c2ncn3[C@@H]2O[C@H](CO)[C@H](O)C2O)cc1 (stereo partly specified)	1
NCC(O)c1ccc(O)cc1 (stereo unspecified)	1.01

----------
- assay_remarks: chemical genetic growth profiling, strain panel (AID 1159580);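 note: tested at 20 µM; growth read once vehicle control cultures reached saturation at 30 °C; 1 = growth at the plate median or of vehicle wells; lower values mean less growth of the strain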
- measurement_context: S. cerevisiae deletion strains, growth OD, locus YPL241C, strain CIN2
The whole screen tested about 5,500 compounds, of which about 2,000 (36%) were called active. About 18% were inconclusive and are not listed. Rule as the data show it: active = normalized growth mostly below about 0.91 (no sharp cut-off); inconclusive = no clear call, values can overlap the other calls; inactive = mostly above about 0.92. Some of the results follow.
Possible outcomes: true (1) (active), false (0) (inactive)

compound	class_name
COC(=O)c1cc(OC)c(OC)cc1-n1c(C)ccc1C	false (0)
NCC(CC(=O)O)c1ccc(Cl)s1 (centres undefined)	false (0)
Oc1c(Cl)cc(Cl)c2cccnc12	true (1)
Clc1cc(Cl)c(Cl)c(-n2cccc2)c1Cl	true (1)
Fc1cc2n[nH]nc2cc1Cl	false (0)
NC(=S)N/N=C\c1ccc(F)c(Cl)c1	false (0)
CC#CCOC(=O)c1c(C)nc2sc3c(c2c1N)CCC(O)C3 (centres undefined)	false (0)
CSc1c(C#N)c(-c2cccs2)nn1C	false (0)
CCSc1sc(C(=O)OC)c(-c2ccc(Cl)cc2)c1C#N	false (0)
CCC(Cc1c(I)cc(I)c(N)c1I)C(=O)O (centres undefined)	false (0)
Oc1c(Br)cc(Br)c2cccnc12	true (1)
CCn1nc(C)c(Br)c1-c1nc(-c2ccc(C(F)(F)F)cc2)no1	false (0)
OC[C@@H]1CCCN2CCCC[C@H]12	false (0)
C#CCOc1c(Cl)cccc1Cl	false (0)
